Assay: Clearance in rat at 8.4 mg/kg
Assay type: ADME, organism-based
Parameters: dose 8.4 mg/kg
Details: in vivo

CHEMICAL_SMILES: Cn1c(=O)c2c(-c3cc(F)ccc3Br)c(CN)c(N3CCOCC3)nc2n(C)c1=O
UNIT_LABEL: mL/min/kg
clearance: 6.8

* * *

Experiment: Oral bioavailability in rat at 8.4 mg/kg
Type: ADME, organism-based
Conditions: in vivo

CHEMICAL_SMILES: Cn1c(=O)c2c(-c3cc(F)ccc3Br)c(CN)c(N3CCOCC3)nc2n(C)c1=O
UNIT_LABEL: %
bioavailability: 100

* * *

Test: Volume of distribution at steady state in rat at […]
Assay type: ADME, organism-based
Set-up: dose 5.2 mg/kg
Details: in vivo, read-out: Vdss

CHEMICAL_SMILES: COc1ccc(F)cc1-c1c(CN)c(N)nc2c1c(=O)n(C)c(=O)n2C
Vd / L/kg: 14.9

* * *

Listed compounds paired with reported IC50
Target: UniProt Q6V1X1
Sequence (Q6V1X1 whole entry): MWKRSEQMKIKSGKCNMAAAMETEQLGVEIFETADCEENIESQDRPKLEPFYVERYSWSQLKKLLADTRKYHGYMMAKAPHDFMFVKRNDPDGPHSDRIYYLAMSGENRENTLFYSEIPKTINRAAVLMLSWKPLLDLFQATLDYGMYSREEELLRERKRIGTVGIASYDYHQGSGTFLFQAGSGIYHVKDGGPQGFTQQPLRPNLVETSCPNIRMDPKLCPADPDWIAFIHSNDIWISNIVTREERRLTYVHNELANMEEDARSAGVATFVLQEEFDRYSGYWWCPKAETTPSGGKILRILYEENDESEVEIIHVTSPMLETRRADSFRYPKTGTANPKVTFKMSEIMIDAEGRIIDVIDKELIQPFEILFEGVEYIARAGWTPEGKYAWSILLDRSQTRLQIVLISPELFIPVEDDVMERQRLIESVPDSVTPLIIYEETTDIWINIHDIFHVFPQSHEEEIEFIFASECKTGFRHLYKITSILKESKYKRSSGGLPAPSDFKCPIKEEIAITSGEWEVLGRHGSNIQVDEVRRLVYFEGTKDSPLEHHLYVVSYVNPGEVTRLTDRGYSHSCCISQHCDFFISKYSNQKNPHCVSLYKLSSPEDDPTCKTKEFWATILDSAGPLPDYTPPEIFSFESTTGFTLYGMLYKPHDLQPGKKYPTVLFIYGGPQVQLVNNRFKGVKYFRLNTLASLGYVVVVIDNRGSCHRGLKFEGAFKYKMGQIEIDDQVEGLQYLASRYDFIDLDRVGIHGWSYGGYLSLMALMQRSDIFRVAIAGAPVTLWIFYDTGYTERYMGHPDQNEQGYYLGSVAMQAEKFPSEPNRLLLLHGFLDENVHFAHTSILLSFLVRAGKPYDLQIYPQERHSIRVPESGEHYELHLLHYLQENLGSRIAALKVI

CHEMICAL_SMILES: CN1CCN(c2nc3c(c(-c4cc(F)ccc4Br)c2CN)c(=O)n(C)c(=O)n3C)CC1
ASSAY_TARGET: UniProt Q6V1X1
RELATIONAL_OPERATOR: >
IC50 (µM): 10

CHEMICAL_SMILES: Cn1c(=O)c2c(-c3ccccc3Br)c(CN)c(N)nc2n(C)c1=O
ASSAY_TARGET: UniProt Q6V1X1
RELATIONAL_OPERATOR: =
IC50 (µM): 8

CHEMICAL_SMILES: Cn1c(=O)c2c(-c3cc(Cl)ccc3Cl)c(CN)c(N)nc2n(C)c1=O
ASSAY_TARGET: UniProt Q6V1X1
RELATIONAL_OPERATOR: =
IC50 (µM): 3.2

CHEMICAL_SMILES: Cn1c(=O)c2c(-c3cc(F)ccc3Br)c(CN)c(N3CCOCC3)nc2n(C)c1=O
ASSAY_TARGET: UniProt Q6V1X1
RELATIONAL_OPERATOR: >
IC50 (µM): 10

* * *

Assay: AUC in rat at […]
Format: ADME, organism-based
Parameters: dose 5.2 mg/kg
Settings: plasma

CHEMICAL_SMILES: COc1ccc(F)cc1-c1c(CN)c(N)nc2c1c(=O)n(C)c(=O)n2C
UNIT_LABEL: ng·h/mL
AUC: 3390

* * *

Molecular target: Dipeptidyl peptidase 4 (Homo sapiens, UniProt P27487)
Sequence (P27487 whole entry): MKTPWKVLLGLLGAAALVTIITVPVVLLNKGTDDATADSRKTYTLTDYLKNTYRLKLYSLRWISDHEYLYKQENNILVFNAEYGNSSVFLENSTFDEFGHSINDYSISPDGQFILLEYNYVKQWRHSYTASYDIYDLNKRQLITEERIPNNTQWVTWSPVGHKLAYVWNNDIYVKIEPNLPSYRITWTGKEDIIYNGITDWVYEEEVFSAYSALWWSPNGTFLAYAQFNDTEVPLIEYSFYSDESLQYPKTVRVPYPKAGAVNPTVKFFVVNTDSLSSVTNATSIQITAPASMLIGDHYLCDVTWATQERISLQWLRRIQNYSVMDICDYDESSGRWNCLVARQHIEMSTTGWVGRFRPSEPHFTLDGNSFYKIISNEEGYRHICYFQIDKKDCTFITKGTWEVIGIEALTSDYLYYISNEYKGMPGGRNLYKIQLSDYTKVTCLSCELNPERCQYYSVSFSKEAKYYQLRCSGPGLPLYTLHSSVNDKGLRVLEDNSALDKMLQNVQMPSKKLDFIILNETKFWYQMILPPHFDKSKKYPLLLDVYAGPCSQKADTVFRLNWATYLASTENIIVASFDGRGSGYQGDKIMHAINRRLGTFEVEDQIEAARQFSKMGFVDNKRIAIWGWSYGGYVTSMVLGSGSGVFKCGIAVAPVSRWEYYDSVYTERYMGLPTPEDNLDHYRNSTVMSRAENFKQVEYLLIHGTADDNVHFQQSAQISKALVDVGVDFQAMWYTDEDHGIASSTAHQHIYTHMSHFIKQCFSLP
RECORDED_METRIC: IC50 (nM)

CHEMICAL_SMILES: Cn1c(=O)c2c(-c3ccc(Br)cc3)c(CN)c(N)nc2n(C)c1=O
ASSAY_RESULT: 128

* * *

Assay: Volume of distribution at steady state in rat at 8.4 mg/kg
Assay type: ADME, organism-based
Parameters: dose 8.4 mg/kg
Conditions: in vivo, read-out: Vdss
RECORDED_METRIC: Vd (L/kg)

CHEMICAL_SMILES: Cn1c(=O)c2c(-c3cc(F)ccc3Br)c(CN)c(N3CCOCC3)nc2n(C)c1=O
RECORDED_METRIC: Vd
UNIT_LABEL: L/kg
ASSAY_RESULT: 0.583

* * *

Assay: Volume of distribution at steady state in rat at 13 mg/kg
Assay type: ADME, organism-based
Parameters: dose 13 mg/kg
Conditions: in vivo, read-out: Vdss

CHEMICAL_SMILES: CN1CCN(c2nc3c(c(-c4cc(F)ccc4Br)c2CN)c(=O)n(C)c(=O)n3C)CC1
Vd [L/kg]: 64.3
